// data source = paper PMC5700166

# tested.system: GST-Aq-NF-kB (Amphimedon queenslandica, UniProt A9Y5G7 2-389)
# Sequence: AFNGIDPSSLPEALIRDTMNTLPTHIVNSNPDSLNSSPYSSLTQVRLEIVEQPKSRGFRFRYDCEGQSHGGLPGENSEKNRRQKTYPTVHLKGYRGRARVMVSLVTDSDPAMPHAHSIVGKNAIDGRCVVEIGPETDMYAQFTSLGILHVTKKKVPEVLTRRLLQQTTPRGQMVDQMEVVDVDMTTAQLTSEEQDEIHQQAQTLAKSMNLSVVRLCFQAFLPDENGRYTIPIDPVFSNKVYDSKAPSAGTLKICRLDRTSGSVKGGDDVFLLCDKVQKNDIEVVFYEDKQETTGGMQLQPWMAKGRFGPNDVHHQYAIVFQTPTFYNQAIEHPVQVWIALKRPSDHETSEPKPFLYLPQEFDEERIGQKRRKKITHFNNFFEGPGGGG
# test.details: protein-binding microarray (PBM); PBM: ~300 nM protein, 6 mM HEPES pH 7.8, 80 mM KCl, 0.5 mM EDTA, 0.5 mM EGTA, 6% glycerol, 35 ng/ul poly-dIdC, 1% milk, 1 h, room temperature; high values mean tight binding
# condition.label: dsDNA, one strand shown
measured.attribute: binding signal (z-score)
The response must be a number in z-score with no trailing unit.

Use the examples below as a reference point.
CCGATTAACATCACAAGTTTCCCTGATGTTAATCGGGTCTTGATTCGCTTGACGCTGCTG = 5.24
CCGATTAACATCAGGAAATTACATGATGTTAATCGGGTCTTGATTCGCTTGACGCTGCTG = 1.17
CCGATTAACATCAGAAAAATACCTGATGTTAATCGGGTCTTGATTCGCTTGACGCTGCTG = 3.17

Look up binding signal of CCGATTAACATCAAATCTTCCCCTGATGTTAATCGGGTCTTGATTCGCTTGACGCTGCTG and report it.
6.11

Look up binding signal of CCGATTAACATCAAAGTCCCCCCTGATGTTAATCGGGTCTTGATTCGCTTGACGCTGCTG and report it.
6.3

Look up binding signal of CCGATTAACATCAGGGGACCACCTGATGTTAATCGGGTCTTGATTCGCTTGACGCTGCTG and report it.
4.66

Look up binding signal of CCGATTAACATCAAACAGTCCCCTGATGTTAATCGGGTCTTGATTCGCTTGACGCTGCTG and report it.
5.66

Look up binding signal of CCGATTAACATCACGGAACCCCCTGATGTTAATCGGGTCTTGATTCGCTTGACGCTGCTG and report it.
5.54

Look up binding signal of CCGATTAACATCAGGCCATTCCCTGATGTTAATCGGGTCTTGATTCGCTTGACGCTGCTG and report it.
4.37

----------
# tested.system: GST-Co-NF-kB (Capsaspora owczarzaki, UniProt F1ARL5 200-546)
# Sequence: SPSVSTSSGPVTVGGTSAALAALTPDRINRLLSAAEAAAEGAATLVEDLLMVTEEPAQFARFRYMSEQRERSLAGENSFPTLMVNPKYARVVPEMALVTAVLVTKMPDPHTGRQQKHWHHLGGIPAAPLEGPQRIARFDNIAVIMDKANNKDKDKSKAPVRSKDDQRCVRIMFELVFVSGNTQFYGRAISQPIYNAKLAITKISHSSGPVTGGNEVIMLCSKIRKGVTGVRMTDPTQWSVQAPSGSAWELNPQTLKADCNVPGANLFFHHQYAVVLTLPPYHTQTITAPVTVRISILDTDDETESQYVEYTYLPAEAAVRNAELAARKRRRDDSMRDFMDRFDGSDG
# test.details: protein-binding microarray (PBM); PBM: ~300 nM protein, 6 mM HEPES pH 7.8, 80 mM KCl, 0.5 mM EDTA, 0.5 mM EGTA, 6% glycerol, 35 ng/ul poly-dIdC, 1% milk, 1 h, room temperature; Ap Aiptasia and Nv Nematostella (sea anemones) / Co Capsaspora / Aq Amphimedon (sponge) / Dm Drosophila / Hu human; RHD is the Rel homology domain; high values mean tight binding
# condition.label: dsDNA, one strand shown
Classify by measured binding signal: condition met if it is equal to or exceeds 2 z-score, condition not met if it is smaller.

Example cases with answers are listed next.
CCGATTAACATCACGAAAACCCCTGATGTTAATCGGGTCTTGATTCGCTTGACGCTGCTG = condition met
CCGATTAACATCAGGACTCCCCATGATGTTAATCGGGTCTTGATTCGCTTGACGCTGCTG = condition met
CCGATTAACATCATGATGGGAAATGATGTTAATCGGGTCTTGATTCGCTTGACGCTGCTG = condition not met

Has CCGATTAACATCAAACAGCCCCCTGATGTTAATCGGGTCTTGATTCGCTTGACGCTGCTG a recorded binding signal greater than or equal to 2 z-score?
condition not met

Has CCGATTAACATCACGGGGGGAAATGATGTTAATCGGGTCTTGATTCGCTTGACGCTGCTG a recorded binding signal greater than or equal to 2 z-score?
condition met
